Values compiled from the supplement of paper PMC5770543.

Can you tell me % growth inhibition for the items I'm about to list?
Test system: Toxoplasma gondii RH tachyzoites
PROTOCOL_DETAILS: % growth inhibition vs DMSO (48 h luciferase); higher = more inhibition
STUDY_CONDITIONS: 10 µM

# value lookup — system Toxoplasma gondii RH tachyzoites, readout % growth inhibition, item Cc1ccc(Nc2nc(NCCO)c3ccccc3n2)cc1C
< 0%

Value wanted: % growth inhibition (Toxoplasma gondii RH tachyzoites) of entry Cc1ccc(-c2cc(C(=O)Nc3ccc(S(=O)(=O)N4CCCCC4)cc3)[nH]n2)c(O)c1
< 0%

Kindly state the measured % growth inhibition obtained for CCCCOc1ccc(C(=O)Nc2cc(C)on2)cc1 with Toxoplasma gondii RH tachyzoites.
< 0%

---

Exercise: state measured median egress time for each of the compounds provided.
Tested on: Toxoplasma gondii RH tachyzoites
PROTOCOL_DETAILS: median egress time after A23187 ionophore; higher = stronger egress inhibition
STUDY_CONDITIONS: 10 µM; pretreatment time: 24 h
Give the quantity in min, number only.

Entry COc1ccc(C2c3ccc4ccccc4c3Oc3ncn(CCCn4ccnc4)c(=N)c32)cc1OC (stereo not given) has what median egress time?
2.27

Request the reported median egress time associated with COc1ccc2c(c1)C1(Nc3ccccc3-c3nc4ccccc4n31)C(=O)N2 (stereo not given)
2.33

For the compound shown here, COc1cc(OC)c(N(C)C(=O)c2cc3c(s2)-c2ccccc2S(=O)(=O)C3)cc1Cl , give the reported median egress time.
8.4

Report median egress time for Oc1ccc(Br)cc1CN1CCN(Cc2cccc(F)c2)CC1 please.
2.27

Param item = Cc1c(C)n(CC(O)CNC2CCCCC2C)c2ccccc12 (stereo not given) ; retrieve measured median egress time.
3.07

Given CCOc1ccccc1CN1CCc2nc3cc(C(C)(C)C)nn3c(O)c2C1 , state its recorded median egress time.
1.47

May I ask what median egress time has been recorded for CC(C)(C)c1ccc(O)c(CNC2CCCCC2)c1 ?
2.8

Return reported median egress time; argument: CCOc1c(Cl)cc(CNC(C)C(O)c2ccccc2)cc1OC (stereo not given)
3.47

Return reported median egress time; argument: CCOC(=O)c1c(NC(=O)c2ccccc2)sc2c(O)c(CN(CC)CC)ccc12
2.13

Any idea what its median egress time is? The compound is Cc1cc(Nc2ccc(C)c(Cl)c2)n2nc(C(F)(F)F)nc2n1
2.46

Dear colleague, I am looking for the recorded median egress time of the following compound: CC(NCc1ccccc1)c1cc(Cl)ccc1O (stereo not given)
2.27

Given the entry Oc1ccccc1CN1CCC2(CCCN(Cc3ccccc3F)C2)C1 (stereo not given) , report its measured median egress time.
2.13

Name the recorded median egress time for Cc1cc(NC(=O)c2ccc(-c3ccccc3)cc2)no1 .
2.27

I'd like to know its median egress time. The compound in question is COc1cccc(-c2nn(C)c3sc(C(=O)NCCN4CCN(c5ccccc5F)CC4)cc23)c1
2.93

Consider the compound CCOc1cc(Cl)c(C(C)NC(=O)c2ccccc2)cc1OCC (stereo not given) and give its measured median egress time.
2.67

Find the recorded median egress time belonging to Oc1ccc(-c2nc(-c3ccc4oc5ccc(-c6[nH]c(-c7ccc(O)cc7)nc6-c6ccccc6)cc5c4c3)c(-c3ccccc3)[nH]2)cc1 and report it.
1.47

Which median egress time value is on record for CCCC(c1nnnn1C1CCCCC1)N1CCN(C(=O)c2ccco2)CC1 (stereo not given) ?
2.4
